assay.info: qHTS Validation assay for Inhibitors of Plasmodium falciparum Dd2 growth in vitro; further: nearly all actives have a fitted effect of over 70% in size; further: potency means the concentration at half of the fitted maximal effect
recorded.conditions: P. falciparum Dd2 in RBCs, SYBR Green growth, 72 h; series mostly up to 28.7 µM
Hit rate of the full screen: of about 4,100 compounds, about 1,600 (39%) were called active. About 25% were inconclusive and are not listed. Some of the results follow.
property.label: Potency

compound	observed.value
COc1ccc(C(=O)Nc2cc(-c3nc4ccccc4s3)ccc2OC)cc1	inactive
Cn1cnc(S(=O)(=O)N2CCCOCCNC(=O)[C@@H]3CCC[C@@H]32)c1	inactive
O=C(c1ccc2c(Cl)c3c(nc2c1)CCCC3)N1CCN(c2cccc(C(F)(F)F)c2)CC1	inactive
CC(Oc1ccccc1)C(=O)Nc1cnc(-c2cccc(Cl)c2)nc1 (stereo unspecified)	inactive
CCC(C(=O)Nc1nc(C)c(C)s1)c1ccccc1 (stereo unspecified)	inactive
CCC(=O)N1c2ccccc2CC1C(=O)NCc1ccccc1C (stereo unspecified)	inactive
OCCNc1nc(Nc2ccc(Br)cc2)nc2ccccc12	2.66 µM (active)
COc1ccc(N2C(N)=NC(N)=NC23CCCC3)cc1	inactive
CN1CC2(CCN(S(=O)(=O)c3ccc(C#N)cc3)CC2)CC1C(=O)N1CCOCC1 (stereo unspecified)	inactive
COc1ccccc1-c1cc(C(=O)N2CCN(S(=O)(=O)c3ccc(C)cc3)CC2)[nH]n1	7.5 µM (active)

-- ask Given the compound CC(=O)N1CCC(C2CCN(Cc3cc(Cl)ccc3F)C2)CC1 (stereo unspecified) , what is its reported Potency?
-- reply inactive

====

assay.info: qHTS Validation assay for Inhibitors of Plasmodium falciparum Dd2 growth in vitro; further: nearly all actives have a fitted effect of over 70% in size
recorded.conditions: P. falciparum Dd2 in RBCs, SYBR Green growth, 72 h; series mostly up to 28.7 µM
In all, about 4,100 compounds went through this assay and about 1,600 (39%) were called active. Roughly 25% stayed inconclusive and do not appear here. Calls come from the whole dose curve; as a rule, active = well fitted inhibition curve with a large enough effect; inconclusive = small, poorly fitted or top-dose-only effect; inactive = no such curve, though single readings can be large or run the other way. The list shows a part of the results.
Choose one outcome from this list and give only that: active, inactive

compound	assigned.class
Cc1noc(-c2cccs2)c1C(=O)NC(C)c1cccc2ccccc12 (stereo unspecified)	active
Cc1ccc(OCc2nc(C3CCN(C(=O)c4c5c(nc6ccccc46)CCCC5)CC3)no2)cc1	active
O=C(NCc1nc(-c2ncccn2)no1)c1csc(-c2cccs2)n1	inactive
CS(=O)(=O)c1ccc(C(=O)Nc2ccc(-c3nc4ccccc4[nH]3)cc2)cc1	active
CC1CCc2cc(F)ccc2N1C(=O)CSc1nnc2c(n1)[nH]c1ccccc12 (stereo unspecified)	active
CC(=O)Nc1ccc(S(=O)(=O)N2CCC(n3c(C)nc4cccnc43)CC2)cc1	inactive
O=C1N(c2ccccc2C(F)(F)F)O[C@@]1(c1ccccc1)C1CCCCC1	active
COc1ccccc1N1CCN(C[C@@H]2C=C(C)[C@H](Cc3nnc(-c4cncn4C)o3)C[C@H]2C(C)C)CC1	active
COc1ccc(-c2[nH]nc3ncc(-c4cccnc4)nc23)cc1F	active
CC1CCCCN1S(=O)(=O)c1ccc(C(=O)Nc2ccccc2-c2nc3ccccc3[nH]2)cc1 (stereo unspecified)	active

-- ask How was `Nc1nonc1-n1nnc(C(=O)N/N=C/c2cccs2)c1-c1ccc2c(c1)OCO2` classified in this test?
-- reply active

====

assay.info: qHTS Validation assay for Inhibitors of Plasmodium falciparum Dd2 growth in vitro; further: nearly all actives have a fitted effect of over 70% in size
recorded.conditions: P. falciparum Dd2 in RBCs, SYBR Green growth, 72 h; series mostly up to 28.7 µM
The whole screen tested about 4,100 compounds, of which about 1,600 (39%) were called active. Inconclusive results (about 25%) are left out. Calls follow the shape of the dose curve; as a rule, active = well fitted inhibition curve with a large enough effect; inconclusive = small, poorly fitted or top-dose-only effect; inactive = no such curve, though single readings can be large or run the other way. The list shows a part of the results.
Choose one outcome from this list and give only that: 1 (active), -1 (inactive)

Example entries and their recorded answers appear below.
molecule	assigned.class
Cc1cccc(C(=O)NCCc2ncc(C)n2C2CC2)c1	-1
CN1CCN(c2ccc3ncc(Nc4ccccc4-c4ccccc4)n3n2)CC1	1
CCc1cccc(NC(=O)N2CCc3nc4cc(-c5ccc(OC)cc5)[nH]n4c(=O)c3C2)c1	-1
CCCC(=O)Nc1sc2c(c1C(=O)Nc1ccccn1)CCCC2	-1
Cn1cc(C(=O)NCCN2CCN(c3cccc(Cl)c3)CC2)c2c3ccccc3n(C)c2c1=O	1

-- ask How was `NCC(=O)N1CCC(n2nccc2NC(=O)c2ccc3c(c2)OCO3)CC1` classified in this test?
-- reply -1

-- ask How was COc1ccc(C2=NOC3(CCN([S+](=O)([O-])c4cccc(OC)c4)C3)C2)cc1 (stereo unspecified) classified in this test?
-- reply -1

-- ask How was `CCC1=Nc2cc(C(=O)NCc3ccco3)ccc2Sc2ccc(C)cc21` classified in this test?
-- reply 1

-- ask How was `Cc1ccc(Cl)cc1N1CCN(C(=O)c2cn(CC(C)C)c(=O)c3c2c2ccccc2n3C)CC1` classified in this test?
-- reply 1

-- ask How was `COc1ccc(C(=O)N2CCN(c3nnc4cccc(C)n34)CC2)cc1F` classified in this test?
-- reply -1

====

assay.info: qHTS Validation assay for Inhibitors of Plasmodium falciparum Dd2 growth in vitro; further: nearly all actives have a fitted effect of over 70% in size; further: potency means the concentration at half of the fitted maximal effect
recorded.conditions: P. falciparum Dd2 in RBCs, SYBR Green growth, 72 h; series mostly up to 28.7 µM
Out of some 4,100 compounds screened, about 1,600 (39%) were called active. Inconclusive results (about 25%) are left out. The list shows a part of the results.
property.label: Potency

As a guide, the following entries are already answered.
compound	observed.value
CCCNc1ccc(-c2nc(-c3ccncc3)no2)cc1[N+](=O)[O-]	inactive
COCCCNC(=O)C(NC(=O)c1ccc(OC)cc1)C1CCN(C(=O)c2cccc(OC)c2)CC1 (stereo not given)	inactive
CCCNCC(O)COc1ccccc1C(=O)CCc1ccccc1 (stereo not given)	0.842 µM (active)
COc1cccc(NC(=O)c2ccc3c(c2)NC(C)(CCCCN2CCOCC2)CO3)c1 (stereo not given)	inactive

Here's the next entry for you.
-- ask Given the compound `Cc1ccc(NC(=O)c2ccc(NCCCN3CCC(C)CC3)c([N+](=O)[O-])c2)cc1F` , what is its reported Potency?
-- reply 6.68 µM (active)

====

assay.info: qHTS Validation assay for Inhibitors of Plasmodium falciparum Dd2 growth in vitro; further: nearly all actives have a fitted effect of over 70% in size
recorded.conditions: P. falciparum Dd2 in RBCs, SYBR Green growth, 72 h; series mostly up to 28.7 µM
Screen size: about 4,100 compounds; about 1,600 (39%) were called active. About 25% were inconclusive and are not listed. Calls follow the shape of the dose curve; as a rule, active = well fitted inhibition curve with a large enough effect; inconclusive = small, poorly fitted or top-dose-only effect; inactive = no such curve, though single readings can be large or run the other way. Some of the results follow.
Choose one outcome from this list and give only that: active, inactive

Example entries and their recorded answers appear below.
compound	assigned.class
CCOC(=O)c1c(C)[nH]c2c1-c1ccccc1C(=O)C2=O	active
COC(=O)[C@H](Cc1ccc(OC)cc1)NC(=O)[C@H]1CN(C(=O)c2ccc(N(C)C)cc2)CCN1C(=O)c1cccs1	active
c1ccc(-c2ccc3ncc(Nc4cccnc4)n3n2)cc1	active
CCOC(=O)c1ccc(NC(=O)Cn2c(-c3cnccn3)nc(C)c(CCO)c2=O)cc1	inactive
CCOC(=O)C1CCN(C(=O)Cn2cnc3sc(C)c(S(=O)(=O)N4CCOCC4)c3c2=O)CC1	inactive
CCOC(=O)c1cc(Sc2ccccc2N)cc(C(=O)OCC)n1	inactive

-- ask How was `COC(=O)[C@H](Cc1ccc(OC)cc1)NC(=O)[C@H]1CN(C(=O)Nc2ccccc2)CCN1C(=O)NC(C)C` classified in this test?
-- reply inactive

-- ask How was `COc1cncc(Nc2cnc3ccc(-c4ccc(OC)c(OC)c4)nn23)c1` classified in this test?
-- reply active

-- ask How was COc1ccc(C2Nc3ccccc3C(=O)N2Cc2ccccc2)cc1COc1ccc(Cl)cc1Cl (stereo unspecified) classified in this test?
-- reply active

-- ask How was `COC(=O)c1c(-c2c(Cl)cccc2Cl)noc1NC(=O)NN1CCCCC1` classified in this test?
-- reply active

-- ask How was CC(=O)N1Cc2ccccc2CC2(CCN(CC3CCOCC3)C2)C1 (stereo unspecified) classified in this test?
-- reply inactive

-- ask How was `OCc1cccc(-c2ccc3ncc(Nc4ccc(OCCN5CCCC5)cc4)n3n2)c1` classified in this test?
-- reply active

-- ask How was `Cc1ccc(-c2cc3c(=O)n(CCNC(=O)c4cc(F)ccc4F)ccn3n2)c(C)c1` classified in this test?
-- reply inactive

-- ask How was `CN(C)C(=O)c1ccc(OC2CCN(C(=O)c3cccs3)CC2)nc1` classified in this test?
-- reply inactive

-- ask How was `Cc1nc(-c2cccc(Cl)c2)n(CC(=O)Nc2ccc(C(F)(F)F)cc2)c(=O)c1CCO` classified in this test?
-- reply active

-- ask How was `CC(=O)N1Cc2ccccc2CC2(CCN(Cc3ccccn3)CC2)C1` classified in this test?
-- reply inactive

-- ask How was `CC(C)NC(=O)N1CCN(S(=O)(=O)c2ccccc2)[C@@H](C(=O)N[C@H](Cc2c[nH]c3ccccc23)C(N)=O)C1` classified in this test?
-- reply inactive

-- ask How was `c1ccc(Cn2c(Sc3nnnn3-c3ccccc3)nnc2-c2ccccc2)cc1` classified in this test?
-- reply active

-- ask How was `COc1ccc(-c2ccc(SCc3ccccn3)nn2)cc1OC` classified in this test?
-- reply inactive

-- ask How was O=C(NCc1cc(F)ccc1F)C1CCN(c2cn[nH]c(=O)c2)C1 (stereo unspecified) classified in this test?
-- reply inactive

-- ask How was `Cc1ccc2c(c1)COc1c3ccc(C(=O)O)cc3nn1-2` classified in this test?
-- reply inactive

-- ask How was `CC1(C)C(=O)N(Cc2ccccc2)[C@H]2CN(CC3CCOCC3)C[C@@H]2[S+]1(=O)[O-]` classified in this test?
-- reply inactive

-- ask How was CC1(c2ccccc2)N(Cc2cccnc2)C(=O)OC12CCN(C(=O)Cc1ccc(Cl)cc1)CC2 (stereo unspecified) classified in this test?
-- reply active
